Listed here are binders together with their documented log10 of Kd.
- SYSTEM_NAME: T1, MCL-1 (mouse, residues 152-308) (mouse)
- T1 construct: remnant of thrombin cleavage at the N-terminus of MCL-1; MCL-1, mouse, residues 152-308, UniProt P97287; source: E. coli C41 pLysS, purified (Ni2+ agarose, thrombin cleavage, ion exchange, Superdex G75 gel filtration); not shown: His6, N-terminal, cleaved
- T1 chain: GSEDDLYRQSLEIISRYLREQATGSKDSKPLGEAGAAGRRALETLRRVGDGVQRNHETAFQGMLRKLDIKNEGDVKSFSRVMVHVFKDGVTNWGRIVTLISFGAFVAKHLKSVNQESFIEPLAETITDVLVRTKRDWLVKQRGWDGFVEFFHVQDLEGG
- EXPERIMENT_DESCRIPTION: stopped-flow fluorescence kinetics + other: fluorescence dissociation kinetics with competitor; Kd calculated as the ratio koff/kon of the kinetic rate constants; 25 °C; 50 mM sodium phosphate, 0.05% (v/v) Tween 20, pH 7.0
- DETAILS: both partners purified
Where no end group is shown, it is not given here. The star is where a group is joined. TAMRA = 5-carboxytetramethylrhodamine, CN(C)c1ccc2c(-c3ccc(C(=O)*)cc3C(=O)[O-])c3ccc(=[N+](C)C)cc-3oc2c1
A value of 2 here means Kd of 100 in nM, since values are log10.

# annotated cases, reported log10 of Kd shown
-- ask Would you mind telling me what log10 of Kd value was observed for {TAMRA}-SESQEEIIHNIARHLAQIGDEMDHNAQPTLVRQLA (peptide, UniProt P70444 76-110, looked up, BID, mouse, residues 76-110, UniProt P70444; source: synthetic peptide (Biomatik)) [BID I101A peptide, TAMRA-labelled] ?
-- reply -0.52

-- ask Would you mind telling me what log10 of Kd value was observed for {TAMRA}-SESQEGIIHNIARHLAQIGDEMDHNIQPTLVRQLA (peptide, UniProt P70444 76-110, looked up, BID, mouse, residues 76-110, UniProt P70444; source: synthetic peptide (Biomatik)) [BID E81G peptide, TAMRA-labelled] ?
-- reply 0.20

-- ask Would you mind telling me what log10 of Kd value was observed for {TAMRA}-SESQEEIIHNIARHLAQIGDEMDANIQPTLVRQLA (peptide, UniProt P70444 76-110, looked up, BID, mouse, residues 76-110, UniProt P70444; source: synthetic peptide (Biomatik)) [BID H99A peptide, TAMRA-labelled] ?
-- reply -0.92

-- ask Would you mind telling me what log10 of Kd value was observed for {TAMRA}-SESQEEIIHNIAGHLAQIGDEMDHNIQPTLVRQLA (peptide, UniProt P70444 76-110, looked up, BID, mouse, residues 76-110, UniProt P70444; source: synthetic peptide (Biomatik)) [BID R88G peptide, TAMRA-labelled] ?
-- reply 0.26

With those in mind, consider the next binder.
-- ask Would you mind telling me what log10 of Kd value was observed for {TAMRA}-SESQEEIIHNIARHAAQIGDEMDHNIQPTLVRQLA (peptide, UniProt P70444 76-110, looked up, BID, mouse, residues 76-110, UniProt P70444; source: synthetic peptide (Biomatik)) [BID L90A peptide, TAMRA-labelled] ?
-- reply 2.79
